The molecules listed here are annotated with their AUC(0-t).
assay: Multiple component PK study in rat plasma after p.o. GDDP (HPLC-MS); conditions: Sprague-Dawley, rat, plasma, po, 0.8 g/kg
Test readout: AUC(0-t)

Cc1coc2c1C(=O)C(=O)c1c-2ccc2c(C)cccc12
40.1 ng·h/mL
CC(C)=CCC[C@](C)(O[C@@H]1O[C@H](CO)[C@@H](O)[C@H](O)[C@H]1O)[C@H]1CC[C@]2(C)[C@@H]1[C@H](O)C[C@@H]1[C@@]3(C)CC[C@H](O)C(C)(C)[C@@H]3[C@@H](O[C@@H]3O[C@H](CO)[C@@H](O)[C@H](O)[C@H]3O[C@@H]3OC[C@@H](O)[C@H](O)[C@H]3O)C[C@]12C [R1, notoginsenoside R1]
120 ng·h/mL
Cc1coc2c1C(=O)C(=O)c1c-2ccc2c1CCCC2(C)C
31.1 ng·h/mL

====

assay: Multiple component PK study in rat plasma after p.o. GDDP (HPLC-MS); conditions: Sprague-Dawley, rat, plasma, po, 0.4 g/kg, Cmax, rat plasma, GDDP 0.4 g/kg p.o. (Low dose group), n=3
Doc: threshold 4 ng/mL (exclusive). Items with Cmax beneath it return 1; others return -1.

C[C@H]1COC2=C1C(=O)C(=O)c1c2ccc2c1CCCC2(C)C
1
CC(C)=CCC[C@](C)(O[C@@H]1O[C@H](CO)[C@@H](O)[C@H](O)[C@H]1O)[C@H]1CC[C@]2(C)[C@@H]1[C@H](O)C[C@@H]1[C@@]3(C)CC[C@H](O[C@@H]4O[C@H](CO)[C@@H](O)[C@H](O)[C@H]4O[C@@H]4O[C@H](CO)[C@@H](O)[C@H](O)[C@H]4O)C(C)(C)[C@@H]3CC[C@]12C [Rd, ginsenoside Rd]
-1
CC(C)=CCC[C@](C)(O[C@@H]1O[C@H](CO[C@@H]2O[C@H](CO)[C@@H](O)[C@H](O)[C@H]2O)[C@@H](O)[C@H](O)[C@H]1O)[C@H]1CC[C@]2(C)[C@@H]1[C@H](O)C[C@@H]1[C@@]3(C)CC[C@H](O[C@@H]4O[C@H](CO)[C@@H](O)[C@H](O)[C@H]4O[C@@H]4O[C@H](CO)[C@@H](O)[C@H](O)[C@H]4O)C(C)(C)[C@@H]3CC[C@]12C [Rb1, ginsenoside Rb1]
-1
Cc1coc2c1C(=O)C(=O)c1c-2ccc2c(C)cccc12
-1
Cc1cccc2c3c(ccc12)C1=C(C(=O)C3=O)[C@@H](C)CO1 [DHTS I, dihydrotanshinone I]
1
CC(C)=CCC[C@](C)(O[C@@H]1O[C@H](CO)[C@@H](O)[C@H](O)[C@H]1O)[C@H]1CC[C@]2(C)[C@@H]1[C@H](O)C[C@@H]1[C@@]3(C)CC[C@H](O)C(C)(C)[C@@H]3[C@@H](O[C@@H]3O[C@H](CO)[C@@H](O)[C@H](O)[C@H]3O[C@@H]3OC[C@@H](O)[C@H](O)[C@H]3O)C[C@]12C [R1, notoginsenoside R1]
-1

====

The compounds listed here are annotated with their Cltot.
assay: Multiple component PK study in rat plasma after p.o. GDDP (HPLC-MS); conditions: rat plasma, GDDP 0.4 g/kg p.o. (Low dose group), n=3
Test readout: Cltot (mL/min/kg)

CC(C)=CCC[C@](C)(O[C@@H]1O[C@H](CO)[C@@H](O)[C@H](O)[C@H]1O)[C@H]1CC[C@]2(C)[C@@H]1[C@H](O)C[C@@H]1[C@@]3(C)CC[C@H](O[C@@H]4O[C@H](CO)[C@@H](O)[C@H](O)[C@H]4O[C@@H]4O[C@H](CO)[C@@H](O)[C@H](O)[C@H]4O)C(C)(C)[C@@H]3CC[C@]12C [Rd, ginsenoside Rd]
624.2
Cc1coc2c1C(=O)C(=O)c1c-2ccc2c(C)cccc12 [TS I, tanshinone I]
45.3
Cc1coc2c1C(=O)C(=O)c1c-2ccc2c1CCCC2(C)C [TS IIA, tanshinone (TS) IIA]
382.2
CC(C)=CCC[C@](C)(O[C@@H]1O[C@H](CO[C@@H]2O[C@H](CO)[C@@H](O)[C@H](O)[C@H]2O)[C@@H](O)[C@H](O)[C@H]1O)[C@H]1CC[C@]2(C)[C@@H]1[C@H](O)C[C@@H]1[C@@]3(C)CC[C@H](O[C@@H]4O[C@H](CO)[C@@H](O)[C@H](O)[C@H]4O[C@@H]4O[C@H](CO)[C@@H](O)[C@H](O)[C@H]4O)C(C)(C)[C@@H]3CC[C@]12C [Rb1, ginsenoside Rb1]
18
Cc1cccc2c3c(ccc12)C1=C(C(=O)C3=O)[C@@H](C)CO1 [DHTS I, dihydrotanshinone I]
101
CC(C)=CCC[C@](C)(O[C@@H]1O[C@H](CO)[C@@H](O)[C@H](O)[C@H]1O)[C@H]1CC[C@]2(C)[C@@H]1[C@H](O)C[C@@H]1[C@@]3(C)CC[C@H](O)C(C)(C)[C@@H]3[C@@H](O[C@@H]3O[C@H](CO)[C@@H](O)[C@H](O)[C@H]3O[C@@H]3OC[C@@H](O)[C@H](O)[C@H]3O)C[C@]12C [R1, notoginsenoside R1]
55.7
C[C@H]1COC2=C1C(=O)C(=O)c1c2ccc2c1CCCC2(C)C [CTS, cryptotanshinone]
3485.3
